- Test system: Rattus norvegicus
- Protocol notes: Antiamnesic activity against scopolamine-induced memory loss in Wistar rat assessed as number of mistake done at 0.1 mg/kg, ip measured for 15 mins by passive avoidance step-down task test
- Type: functional
- Condition set: route intraperitoneal
Measured Activity, listed per entry for reference.

• CC(C)N1C(=O)CSC1C1=CCCN(C)C1 (configuration not stated) = 30
• CN1CCC=C(C2SCC(=O)N2c2cccc(O)c2)C1 (configuration not stated) = 23
• CCCCCCN1C(=O)CSC1C1=CCCN(C)C1 (configuration not stated) = 21
• CCN1C(=O)CSC1C1=CCCN(C)C1 (configuration not stated) = 21
• Cc1ccc(N2C(=O)CSC2C2=CCCN(C)C2)c([N+](=O)[O-])c1 (configuration not stated) = 25
• CN1CCC=C(C2SCC(=O)N2c2ccccc2)C1 (configuration not stated) = 32

// query Recorded Activity for CN1CCC=C(C2SCC(=O)N2c2ccc(C(=O)O)cc2)C1 (configuration not stated) with Rattus norvegicus, please?
// result 14
